# System: S. cerevisiae
# ASSAY_TEXT: fungistatic MIC assay in antifungal agar
# Type: cell-based
# PARTICULARS: S. cerevisiae, minimum concentration for 100% inhibition after 24 hours at 37° C.
Positions of bridges follow the written chain, without caps; N, C: chain ends. No end group written: not given here.
RESULT_TYPE: MIC range

Recorded results for 7 substances are shown here.
SUBSTANCE: Arg His His Gly Cys Lys Arg Lys Phe His Glu Lys His His Ser Cys Arg Gly Tyr (RHHGCKRKFHEKHHSCRGY; disulfide 5-16 (inferred)) [Db3-11]
MIC range: 2.5-5
--
SUBSTANCE: Arg His His Cys Tyr Lys Arg Lys Phe His Glu Lys His His Cys His Arg Gly (RHHCYKRKFHEKHHCHRG; also: cyclic analogue, ring not given here) [Db3-19]
MIC range: 1.3-2.6
--
SUBSTANCE: Arg His His Cys Trp Lys Arg Lys Phe His Glu Lys His His Cys His Arg Gly Tyr (RHHCWKRKFHEKHHCHRGY; disulfide 4-15 (inferred)) [Db3-67]
MIC range: 0.67-1.34
--
SUBSTANCE: Arg His His Gly Cys Lys Arg Lys Phe His Glu Lys His His Cys His Arg Gly Tyr (RHHGCKRKFHEKHHCHRGY; disulfide 5-15 (inferred)) [Db2-178]
MIC range: 2.5-5
--
SUBSTANCE: Arg His His Cys Tyr Lys Arg Lys Cys His Glu Lys His His Cys His Arg Cys Tyr (RHHCYKRKCHEKHHCHRCY; also: cyclic analogue, ring not given here) [Db2-100]
MIC range: 0.63-1.25
--
SUBSTANCE: RHHCYRKFHEKHHC (cysteine pairing not given here) [Db3-30]
MIC range: >5.2
--
SUBSTANCE: Arg His His Cys Tyr Lys Arg Lys His His Glu Lys His His Cys His Arg Gly Tyr (RHHCYKRKHHEKHHCHRGY; disulfide 4-15 (inferred)) [Db3-13]
MIC range: 2.6-5.1

Attention now shifts to the item below.
Asked: What measured MIC range is associated with Arg His His Cys Tyr Lys Arg Lys Phe His Glu Lys His His Cys His Arg (RHHCYKRKFHEKHHCHR; also: cyclic analogue, ring not given here) [Db3-15] on S. cerevisiae?
Given back: 2.6-5.2
